# MEASURED TARGET: HLA-B*08:01 (human (endogenous in the Steinlin EBV …))
pIC50: −log10 of the molar value.
TEST READOUT: pIC50

BINDER	TEST READOUT	ASSAY VALUE
IRSSYIRVL [peptide 3424.0028 (IRSSYIRVL, DNA replication licensing factor MCM5 289-297)]	pIC50	6.52

Recorded values, source paper PMC8439434.
